// values below are reported viability, T/C
Tested on: 429239-143-T-J1-PDC complex spheroid viability;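 also: luminescence signal used as surrogate measure of viable cells; spheroids exposed to compounds for seven days before readout; 100% = DMSO vehicle control viability as luminescence relative to vehicle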
procedure-summary: Anticancer human tumor 429239-143-T-J1-PDC patient-derived small cell lung carcinoma cell line growth inhibition [POLQ]
assay-conditions: second compound 1 µM; first compound 0.316 µM; hits give low values
Enter your answer as a number in %; do not include the unit.

The cases that follow already have their viability, T/C on record.
INSERT INTO assay_data (molecule, system_under_test, readout_value) VALUES
  ('COc1cccc(OCCCN)c1-c1cc(Nc2cnc(C#N)cn2)n[nH]1 + COC1C(OC(N)=O)C(O)C(Oc2ccc3c(O)c(NC(=O)c4ccc(O)c(CC=C(C)C)c4)c(=O)oc3c2C)OC1(C)C', '429239-143-T-J1-PDC complex spheroid viability', 30.3),
  ('CC1COCCN1c1cc(-c2ccnn2C)c2ccnc(-c3ccn[nH]3)c2n1 (stereo unspecified) + COC1C(OC(N)=O)C(O)C(Oc2ccc3c(O)c(NC(=O)c4ccc(O)c(CC=C(C)C)c4)c(=O)oc3c2C)OC1(C)C', '429239-143-T-J1-PDC complex spheroid viability', 27.6),
  ('CC1COCCN1c1cc(-c2ccnn2C)c2ccnc(-c3ccn[nH]3)c2n1 (stereo unspecified) + Nc1ccc(C#CCN(C(=O)Cc2ncc(C(F)(F)F)cc2C(F)(F)F)c2ccc(F)cc2)nn1', '429239-143-T-J1-PDC complex spheroid viability', 56.1),
  ('CC1COCCN1c1cc(C2(S(C)(=N)=O)CC2)nc(-c2ccnc3[nH]ccc23)n1 (stereo unspecified) + COC1C(OC(N)=O)C(O)C(Oc2ccc3c(O)c(NC(=O)c4ccc(O)c(CC=C(C)C)c4)c(=O)oc3c2C)OC1(C)C', '429239-143-T-J1-PDC complex spheroid viability', 95.3),
  ('CCCS(=O)(=O)Nc1ccc(F)c(C(=O)c2c[nH]c3ncc(-c4ccc(Cl)cc4)cc23)c1F + COC1C(OC(N)=O)C(O)C(Oc2ccc3c(O)c(NC(=O)c4ccc(O)c(CC=C(C)C)c4)c(=O)oc3c2C)OC1(C)C', '429239-143-T-J1-PDC complex spheroid viability', 94.5);

From here, focus on the item given below.
Looking up COc1cc(C2c3cc4c(cc3C(OC3OC5COC(C)OC5C(O)C3O)C3COC(=O)C23)OCO4)cc(OC)c1O (stereo unspecified) + COC1C(OC(N)=O)C(O)C(Oc2ccc3c(O)c(NC(=O)c4ccc(O)c(CC=C(C)C)c4)c(=O)oc3c2C)OC1(C)C , I found its viability, T/C recorded as 54
